The measured values listed here are drawn from patent US20220387602A1.

# Assay System: CRBN (Homo sapiens)
# Assay Overview: CRBN displacement assay Format 1 (fluorescence polarization, BodipyFL-lenalidomide probe Compound HH)
# Assay type: binding
# Description: Compounds were tested in the following biochemical and cellular assays. BodipyFL conjugated lenalidomide compound HH was used as a fluorescent probe. […] Protein and substrate were diluted in assay buffer. All protein and probe containing solutions were handled in ‘Maxymum Recovery’ tubes (Axygen Scientific Inc., Union City, USA). […] For the plate measurements a PHERAstar reader (BMG Labtech, Offenburg, Germany) was used. […] The fluorescence in each well was excited by 10 flashes per measurement. […]
Record form. Attribute: AC50. Fill in for each entry.
Show the value, then the unit it is measured in.

Example entries begin here.
I have this compound here, "Cc1c(NC(=O)c2ccc(C(C)(C)O)cc2F)cc(F)cc1-c1ncnc2[nH]c(-c3ccc(CN4CCN(C(=O)N5CCN(CCC#Cc6cccc(N7CCC(=O)NC7=O)c6)CC5)CC4)cc3)cc12" , and I need its recorded AC50.
0.257 µM

Give its AC50 value. Item: "CC(C)(C)OC(=O)NCC#Cc1cc(F)c(N2CCC(=O)NC2=O)c(F)c1"
2.99 µM

// AC50 lookup, key: "Cc1ccc(N2CCC(=O)NC2=O)cc1CNC(=O)CCCCN(C)Cc1ccc(-c2cc3c(-c4cc(F)cc(NC(=O)c5ccc(C(C)(C)O)cc5F)c4C)ncnc3[nH]2)cc1"
2.1 µM

---
Could you share which AC50 value was measured for "C=CCn1cccc(CN2CCC(=O)NC2=O)c1=O" ?
11 µM

* * *

# Assay System: CRBN (Homo sapiens, UniProt Q96SW2)
# Sequence (Q96SW2 whole entry): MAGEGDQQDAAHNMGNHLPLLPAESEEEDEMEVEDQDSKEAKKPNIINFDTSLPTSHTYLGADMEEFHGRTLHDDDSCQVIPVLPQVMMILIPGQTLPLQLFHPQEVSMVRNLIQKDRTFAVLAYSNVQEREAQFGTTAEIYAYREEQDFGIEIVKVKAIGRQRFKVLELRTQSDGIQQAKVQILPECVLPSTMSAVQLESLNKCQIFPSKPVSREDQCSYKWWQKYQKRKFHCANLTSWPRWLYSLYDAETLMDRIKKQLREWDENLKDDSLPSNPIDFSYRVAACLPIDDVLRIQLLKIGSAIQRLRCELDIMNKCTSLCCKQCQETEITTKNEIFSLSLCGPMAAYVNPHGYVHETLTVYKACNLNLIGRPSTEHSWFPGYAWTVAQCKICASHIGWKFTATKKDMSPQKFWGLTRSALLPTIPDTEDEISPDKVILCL
# Assay Overview: CRBN displacement assay Format 2a (fluorescence polarization, 1536-well, Envision reader)
# Format: binding
# Assay Conditions: greatest effect as % displacement of the reference probe at the highest concentration tested (50 μM); given where AC50 >50 μM; 45 min
rule met if CRBN Amax* (% at 50 μM) Format 2a is below 40%. rule not met if not; exact matches included in rule not met.

The following compounds have reported results that may help.
# strict comparison: is reported CRBN Amax* (% at 50 μM) Format 2a < 40%? input = O=C(O)CCn1cc(N2CCC(=O)NC2=O)cn1 [ILB-66]
rule not met

Problem: For the compound O=C1CCN(Cc2cc(C(=O)O)ccn2)C(=O)N1 [ILB-8] , is CRBN Amax* (% at 50 μM) Format 2a under 40%?
rule met

is_below(CRBN Amax* (% at 50 μM) Format 2a, 40%) for Cn1cc(Br)c(CN2CCC(=O)NC2=O)n1 [ILB-85] ?
rule not met

Confirm or reject: CRBN Amax* (% at 50 μM) Format 2a of COc1ccc(C(=O)O)cc1CN1CCC(=O)NC1=O [ILB-9] lies strictly below 40%
rule met

---
Quick check: does C[Si](C)(C)CCOCN1C(=O)CCN(Cc2cccc(C=O)c2)C1=O [ILB-10] have CRBN Amax* (% at 50 μM) Format 2a under 40%?
rule met

* * *

# Assay System: CRBN (Homo sapiens, UniProt Q96SW2)
# Assay Overview: CRBN displacement assay Format 2a (fluorescence polarization, 1536-well, Envision reader)
# Format: binding
# Assay Conditions: concentration at which 50% of reference probe Compound HH is displaced; 40 nM protein, 5 nM probe; read-out: CRBN AC50 [μM] Format 2a
// class assignment uses AC50 with these ranges: low end: < 2 µM; middle: ≥ 2 µM and < 5 µM; high end: ≥ 5 µM

Worked examples follow.
Quick check: band for "COc1ccc(C(=O)O)cc1N1CCC(=O)NC1=O"
low end

Which class holds "O=C1CCN(c2ccc(C#CCN3CCC(n4cc(Br)cn4)CC3)cc2)C(=O)N1" ?
middle

Which of the defined bands does the recorded AC50 of "Cc1cc(OCC(=O)O)ccc1N1CCC(=O)NC1=O" sit within?
middle

Given "C#Cc1cccc(N2CCC(=O)NC2=O)c1" , name the class its AC50 places it in.
middle

Classify this compound: "NCCC#Cc1ccc(N2CCC(=O)NC2=O)cc1"
high end

Could you place "CCOC(=O)c1cncc(N2CCC(=O)NC2=O)c1" in its proper category? Many thanks.
high end

Categorize the following entry: "NCCN1CCC(Oc2ccc(N3CCC(=O)NC3=O)cc2)CC1"
middle

Categorize the following entry: "O=C1CCN(c2ccc(C#CCN3CCOC4(CCNCC4)C3)cc2)C(=O)N1"
middle

Tag the class for "O=C1CCN(c2ccc(C#CCCCI)cc2)C(=O)N1"
middle

Textbook exercise: identify the category of the compound given here, "O=C1CCN(c2c(F)cc(C#CC3CCNCC3)cc2F)C(=O)N1" , according to its measured value.
high end

Others:
Textbook exercise: identify the category of the compound given here, "O=C1CCN(c2cccc(C(=O)O)c2)C(=O)N1" , according to its measured value.
low end

Place this compound in its band: "O=C1CCN(c2cncc(Br)c2)C(=O)N1"
high end

Tag the class for "O=CCOc1cccc(N2CCC(=O)NC2=O)c1"
middle

Input "Cc1ccc(S(=O)(=O)NCCCCCN)cc1N1CCC(=O)NC1=O" ; output its category
middle

Field: class (AC50) — entry: "CCOC(COc1ccc(N2CCC(=O)NC2=O)c(Cl)c1)OCC"
middle

* * *

Exercise: for every item that follows, state its recorded log10 AC50.
# Assay System: CRBN (Homo sapiens)
# Assay Overview: CRBN displacement assay Format 2b (as 2a, quadruplicate, PHERAstar reader)
# Format: binding
# Assay Conditions: concentration at which 50% of reference probe Compound HH is displaced; quadruplicate; read-out: CRBN AC50 [μM] Format 2b
Values are log10 of AC50 in µM.

Reported log10 AC50 for CRBN (Homo sapiens), given C=C(C)c1cncc(N2CCC(=O)NC2=O)c1 [ILB-74] ?
0.66

Give log10 AC50 for all compounds that follow.
1. CCOC(=O)c1cncc(N2CCC(=O)NC2=O)c1 [ILB-78]
2. O=C1CCN(c2cncc(Br)c2)C(=O)N1 [ILB-76]
3. COC(=O)c1cncc(N2CCC(=O)NC2=O)c1 [ILB-72]
4. CCOC(=O)Cc1cncc(N2CCC(=O)NC2=O)c1 [ILB-71]

[0.71, 1.18, 1.26, 0.90]

What value of log10 AC50 on CRBN (Homo sapiens) does O=C1CCN(c2cncc(O)c2)C(=O)N1 [ILB-77] have?
-0.52

* * *

# Assay System: CRBN (Homo sapiens, UniProt Q96SW2)
# Assay Overview: CRBN displacement assay Format 2a (fluorescence polarization, 1536-well, Envision reader)
# Format: binding
Observable: AC50 (µM)
Answers are plain numbers, in µM.

Please review the following examples before continuing.
Entry "O=C1CCN(Cc2cccn(C3CCN(C(=O)OCc4ccccc4)CC3)c2=O)C(=O)N1" has what AC50?
4.95

Given the compound "O=C1CCN(Cc2cc(Cl)ccn2)C(=O)N1" , what is its reported AC50?
5.22

State the recorded AC50 for this entry: "C=CCn1cccc(CN2CCC(=O)NC2=O)c1=O"
4.79

Name the recorded AC50 for "O=C1CCN(Cc2sccc2Br)C(=O)N1" .
45.6

Looking for the measured AC50 of "O=C1CCN(c2cn[nH]c2)C(=O)N1" , can you help?
7.15

List reported AC50 for each of these compounds:
1. O=C1CCN(Cc2cccn(CCO)c2=O)C(=O)N1
2. COc1ccc(C(=O)N2CCC(OC3CCNCC3)CC2)cc1N1CCC(=O)NC1=O
3. Nc1ncc(Br)cc1CN1CCC(=O)NC1=O
4. O=C1CCN(Cc2cc(Br)ccn2)C(=O)N1

4.17
0.34
10.9
1.85

For each entry beneath this line, provide reported AC50.
1. COc1ccc(C(=O)N2CCC3(CCNCC3)CC2)cc1N1CCC(=O)NC1=O
2. O=C1CCN(c2cncc(Cl)c2)C(=O)N1
3. O=C1CCN(Cc2cccn(CCN3CCC(OC4CCNCC4)CC3)c2=O)C(=O)N1

[0.23, 15, 8.36]

* * *

# Assay System: CRBN (Homo sapiens, UniProt Q96SW2)
# Assay Overview: CRBN displacement assay Format 2a (fluorescence polarization, 1536-well, Envision reader)
# Type: binding
# Assay Conditions: concentration at which 50% of reference probe Compound HH is displaced; 40 nM protein, 5 nM probe; read-out: CRBN AC50 [μM] Format 2a
Define the label as MET when AC50 is strictly less than 3 µM and as NOT MET in all remaining cases.

Please determine if O=C1CCN(c2cc(C(=O)O)ccc2Cl)C(=O)N1 [ILB-25] is below 3 µM in terms of AC50.
MET

Report whether reported AC50 is lower than 3 µM (strictly) for COc1cc(C(=O)O)ccc1N1CCC(=O)NC1=O [ILB-81]
MET

Lab note: AC50 threshold 3 µM. Does this compound come in strictly under it? O=C(O)COc1ccc(N2CCC(=O)NC2=O)cc1 [ILB-14]
NOT MET

Please check: AC50 for O=C1CCN(c2cncc(O)c2)C(=O)N1 [ILB-77] , strictly under 3 µM or not?
MET

Hi there! Is AC50 for C[Si](C)(C)CCOCN1C(=O)CCN(Cc2cccc(C=O)c2)C1=O [ILB-10] below 3 µM, do you know?
NOT MET

***
Answer whether the compound COC(=O)c1cncc(N2CCC(=O)NC2=O)c1 [ILB-72] has AC50 strictly less than 3 µM
NOT MET

Item O=C(O)COc1ccc(Cl)c(N2CCC(=O)NC2=O)c1 [ILB-17] : AC50 beneath 3 µM, strictly?
NOT MET

Please state whether AC50 is below 3 µM for O=C1CCN(c2cc(C(=O)O)ccc2O)C(=O)N1 [ILB-22]
MET

Here's an entry: O=C(O)COc1cccc(N2CCC(=O)NC2=O)c1 [ILB-16] . Is its AC50 below 3 µM?
NOT MET

Does the reported AC50 of CCOC(=O)Cc1cncc(N2CCC(=O)NC2=O)c1 [ILB-71] stay below 3 µM?
NOT MET
